What PT was measured for each of the following?
Organism: Rattus norvegicus
Assay: Open TG-GATES - Regimen: Daily Repeat
Format: toxicity, organism-based, Sprague-Dawley
Design: regimen Daily Repeat, gender Male, age 6 weeks
Conditions: in vivo, po, 100 mg/kg, […], tissue Blood, route gavage, dose level Low, time 14 day
Provide the measurement as a number trailed by its unit.

Query block: Could you please provide reported PT for NC(N)=Nc1nc(CSCCC(N)=NS(N)(=O)=O)cs1 ? Thanks!
Result block: 12.6 s

Query block: Could you please provide reported PT for COc1ccc2[nH]c([S+]([O-])Cc3ncc(C)c(OC)c3C)nc2c1 (stereo not given) ? Thanks!
Result block: 12.1 s

Query block: Could you please provide reported PT for CCOc1ccc(NC(=O)CC(C)O)cc1 (stereo not given) ? Thanks!
Result block: 13.9 s

Query block: Could you please provide reported PT for COC1=CC(=O)C[C@@H](C)[C@]12Oc1c(Cl)c(OC)cc(OC)c1C2=O ? Thanks!
Result block: 12.3 s

Query block: Could you please provide reported PT for CCOC(=O)CCC(=O)O[C@H]1[C@H](O[C@@H]2[C@@H](C)[C@H](O[C@H]3C[C@@](C)(OC)[C@@H](O)[C@H](C)O3)[C@@H](C)C(=O)O[C@H](CC)[C@@](C)(O)[C@H](O)[C@@H](C)C(=O)[C@H](C)C[C@@]2(C)O)O[C@H](C)C[C@@H]1N(C)C [ERYTHROMYCIN ETHYLSUCCINATE] ? Thanks!
Result block: 16.3 s
